system: P388 leukemia ip, CD2F1 mice, survival T/C; assay: NCI In Vivo Anticancer Drug Screen. Data for tumor model P388 Leukemia (intraperitoneal) in CD2F1 (CDF1) mice; details: endpoint: median survival time; dose: 50.0 mg/kg/injection; schedule: Q01DX005 (ip); vehicle: saline with Tween-80; higher = longer survival
Inconclusive results and toxic doses are left out.
experimental.readout: T/C

// worked examples, T/C included
Cc1ccccc1N=C(CCl)Nc1ccccc1C    94 % of control
COC(=O)C(C)n1c(C)csc1=S (centres undefined)    103 % of control
COc1ccc(Cc2c(O)ccc3ccccc23)cc1    104 % of control

Query: Please provide the recorded T/C for Cn1c(N)c2c(=O)n(C)c3c(c2c(C#N)c1=O)CCSc1ccccc1-3 , tested on P388 leukemia ip, CD2F1 mice, survival T/C.
Response: 94 % of control

###

test system: P388 leukemia ip, CD2F1 mice, survival T/C; test: NCI In Vivo Anticancer Drug Screen. Data for tumor model P388 Leukemia (intraperitoneal) in CD2F1 (CDF1) mice; details: endpoint: median survival time; dose: 240.0 mg/kg/injection; schedule: Q01DX005 (ip); vehicle: saline with Tween-80; higher = longer survival
Inconclusive results and toxic doses are left out.
experimental.readout: T/C

CC(=O)CC(C)c1ccc(C(C)CC(C)=O)o1 (stereo unspecified)    104 % of control
COc1ccc(C(=O)/C=C/c2c[nH]c3ccccc23)c(O)c1    96 % of control
CN=C([O-])c1c(=O)o[nH][n+]1-c1ccccc1    94 % of control
Cc1oc2ccccc2c(=O)c1Cn1cnc2ccc([N+](=O)[O-])cc21    91 % of control
CCOC(=O)Nc1cc2c(cn1)[nH]c1ccccc12    112 % of control

From here, focus on the item given below.
Query: # query: T/C of entry CCCCCC(=O)C(C)(c1nc2n(c1O)/C(=N/C(=O)Nc1ccc(Cl)cc1)N=N2)c1nc2n(c1O)/C(=N/C(=O)Nc1ccc(Cl)cc1)N=N2
Response: 86 % of control

###

Assignment: determine reported T/C for the given compounds.
system: P388 leukemia ip, CD2F1 mice, survival T/C; assay: NCI In Vivo Anticancer Drug Screen. Data for tumor model P388 Leukemia (intraperitoneal) in CD2F1 (CDF1) mice; settings: endpoint: median survival time; dose: 100.0 mg/kg/injection; schedule: Q01DX005 (ip); vehicle: Klucel (hydroxypropylcellulose) (HPC); higher = longer survival
Inconclusive results and toxic doses are left out.

CCCN(CCC)C(=O)C(c1ccccc1)C(O)(c1ccccc1)c1ccccc1 (centres undefined)    95 % of control
OCCNc1ncnc2cc(Cl)ccc12    105 % of control
O=c1[nH]nc(OCCO)c2ccccc12    98 % of control

Query: Any idea what T/C was measured for COc1cc(C(=O)C(C=O)c2ccccc2)c([N+](=O)[O-])cc1OC (centres undefined) ?
Response: 98 % of control

###

Task for the reader: assign each of the following compounds its reported T/C.
system: P388 leukemia ip, CD2F1 mice, survival T/C; experiment: NCI In Vivo Anticancer Drug Screen. Data for tumor model P388 Leukemia (intraperitoneal) in CD2F1 (CDF1) mice; conditions: endpoint: median survival time; dose: 50.0 mg/kg/injection; schedule: Q01DX009 (ip); vehicle: Klucel (hydroxypropylcellulose) (HPC); higher = longer survival
Toxic doses and inconclusive results are not listed.

CN(C(=S)S(=O)(=O)C12CC3CC(CC(C3)C1)C2)c1ccccc1    124 % of control
CN(C)N1C(=O)C(c2ccccc2)(c2ccccc2)CSC1=S    108 % of control
CC(=O)C1C(=O)C(=O)N(c2ccccc2C)C1=O (stereo not drawn)    105 % of control
CS(=O)(=O)/C=C/c1cccnc1    101 % of control
CC12CC(C(=O)O)C(C)(C1=O)C(c1ccccc1)=C2c1ccccc1 (stereo not drawn)    93 % of control
Cc1ccccc1NC(=O)Cc1ccccc1    108 % of control
CCCCCCCCCc1cc(=O)n(-c2ccc(C(=O)OCC)cc2)n1C    104 % of control
CC1C(c2ccccc2)OCCN1C=NC#N (stereo not drawn)    102 % of control

Required: T/C, one value per compound below.
1. CCOC(=O)c1ccc(NC(=S)Nc2ccccc2C(F)(F)F)cc1
2. Cc1ccc2nc(N3C(=O)CSC3=S)sc2c1
3. CCOc1ccccc1C(=O)Nc1ccc(Br)cc1
4. C1CCNCC1.O=C([CH-]C(=O)C(F)(F)F)c1ccc2c(c1)C(=O)c1ccccc1-2.O=C([CH-]C(=O)C(F)(F)F)c1ccc2c(c1)C(=O)c1ccccc1-2.O=C([CH-]C(=O)C(F)(F)F)c1ccc2c(c1)C(=O)c1ccccc1-2.O=C([CH-]C(=O)C(F)(F)F)c1ccc2c(c1)C(=O)c1ccccc1-2.[Eu+3]
5. O=C(OCCN1CCN(CCCN2c3ccccc3Sc3ccc(C(F)(F)F)cc32)CC1)C12CC3CC(CC(C3)C1)C2
6. O=C1CSC(=S)N1c1ccc(Cl)cc1

Response:
100 % of control
100 % of control
100 % of control
110 % of control
113 % of control
96 % of control

Please give T/C for each item listed below.
1. Cc1ccc(/C=N/S(=O)(=O)Cc2ccccc2)cc1
2. Cn1c(-c2ccccc2)c2c(c1-c1ccccc1)C(=O)c1ccccc1C2=O
3. NC(=O)c1ccc(=S)[nH]c1
4. C/C=C/C=C1/OC(C)=C(C(=O)OCC)C1=O
5. COc1ccccc1N1C(=O)C(=O)C(C(C)=O)C1=O (stereo not drawn)

Response:
99 % of control
95 % of control
97 % of control
123 % of control
107 % of control

State recorded T/C for all listed compounds.
1. COc1cc(OC)c(N=Cc2ccc(C=Nc3cc(Cl)c(OC)cc3OC)cc2)cc1Cl
2. COc1ccc(C2C(C#N)C(=O)NC(=O)C2C#N)cc1OC (stereo not drawn)
3. CCCCCCCC/C=C\CCCCCCCCCCCC(=O)OC/C=C/COC(=O)c1ccccc1

Response:
1: 100 % of control; 2: 98 % of control; 3: 100 % of control

Give measured T/C for every item shown.
1. CCOc1ccc(N2C(=O)C(=O)C(C(C)=O)C2=O)cc1 (stereo not drawn)
2. CN(C)c1ccc(/C=C/c2c(F)cnc3ccccc23)cc1

Response:
108 % of control
104 % of control

Value source: PubChem BioAssay AID330
